The measurements presented in this section are drawn from patent US20120214748A1.

For each entry below, report its log10 Ki value.
# Assayed Target: Trypsin (Bos taurus, UniProt P00760)
# Sequence (P00760 24-246): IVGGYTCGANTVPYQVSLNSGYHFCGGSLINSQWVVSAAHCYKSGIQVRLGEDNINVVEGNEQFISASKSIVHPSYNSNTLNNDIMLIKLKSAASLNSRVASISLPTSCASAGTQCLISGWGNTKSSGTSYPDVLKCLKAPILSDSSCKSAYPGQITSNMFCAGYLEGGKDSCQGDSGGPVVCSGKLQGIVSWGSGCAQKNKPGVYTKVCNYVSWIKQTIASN
Bridge positions count the residues as written; N and C are the ends. Peptide text beside a SMILES is read from it.
// do not treat as linear: log10 of Ki, unit nM

| Molecule | log10 Ki |
| --- | --- |
| CC[C@H](C)[C@@H]1NC(=O)CNC(=O)[C@H](CC(=O)O)NC(=O)[C@@H]2CCCN2C(=O)[C@H]([C@@H](C)CC)NC(=O)[C@@H]2CSSC[C@H](NC1=O)C(=O)N[C@@H](CO)C(=O)N[C@@H](CCCNC(=N)N)C(=O)N[C@@H](CO)C(=O)N[C@@H](CC(C)C)C(=O)N1CCC[C@H]1C(=O)N1CCC[C@H]1C(=O)N[C@@H]([C@@H](C)CC)C(=O)N2 [M2-4G cyclic] (cyclo(CIPDGICSRSLPPI); disulfide 1-7) | 2.54 |
| CC[C@H](C)[C@H](NC(=O)[C@@H]1CSSC[C@H](NC(=O)[C@H](Cc2ccc(O)cc2)NC(=O)CN)C(=O)N[C@@H](CO)C(=O)N[C@@H](CCCNC(=N)N)C(=O)N[C@@H](CO)C(=O)N[C@@H]([C@@H](C)CC)C(=O)N2CCC[C@H]2C(=O)N2CCC[C@H]2C(=O)N[C@@H](C(C)C)C(=O)N1)C(=O)N1CCC[C@H]1C(=O)N[C@@H](CC(=O)O)C(=O)O [M2-6E-Y7I] (H-GYCSRSIPPVCIPD-OH; disulfide 3-11; N-terminus and C-terminus assumed) | 2.20 |

Return reported log10 Ki values for all items listed beneath this line.
1. CC[C@H](C)[C@H](NC(=O)[C@@H]1CSSC[C@H](NC(=O)[C@H](Cc2ccc(O)cc2)NC(=O)CN)C(=O)N[C@@H](CO)C(=O)N[C@@H](CCCNC(=N)N)C(=O)N[C@@H](CO)C(=O)N[C@@H](Cc2ccc(O)cc2)C(=O)N2CCC[C@H]2C(=O)N2CCC[C@H]2C(=O)N[C@@H](C(C)C)C(=O)N1)C(=O)N1CCC[C@H]1C(=O)N[C@@H](CC(=O)O)C(=O)O [M2-6E] (H-GYCSRSYPPVCIPD-OH; disulfide 3-11; N-terminus and C-terminus assumed)
2. CC[C@H](C)[C@H](NC(=O)[C@@H]1CSSC[C@H](NC(=O)[C@H](Cc2c[nH]c3ccccc23)NC(=O)CN)C(=O)N[C@@H](CO)C(=O)N[C@@H](CCCNC(=N)N)C(=O)N[C@@H](CO)C(=O)N[C@@H](Cc2ccc(O)cc2)C(=O)N2CCC[C@H]2C(=O)N2CCC[C@H]2C(=O)N[C@@H](C(C)C)C(=O)N1)C(=O)N1CCC[C@H]1C(=O)N[C@@H](CC(=O)O)C(=O)O [M2-6E-Y2W] (H-GWCSRSYPPVCIPD-OH; disulfide 3-11; N-terminus and C-terminus assumed)
3. CC[C@H](C)[C@H](NC(=O)[C@@H]1CSSC[C@H](NC(=O)[C@H](CCSC)NC(=O)CN)C(=O)N[C@@H](CO)C(=O)N[C@@H](CCCNC(=N)N)C(=O)N[C@@H](CO)C(=O)N[C@@H](Cc2ccc(O)cc2)C(=O)N2CCC[C@H]2C(=O)N2CCC[C@H]2C(=O)N[C@@H](C(C)C)C(=O)N1)C(=O)N1CCC[C@H]1C(=O)N[C@@H](CC(=O)O)C(=O)O [M2-6E-Y2M] (H-GMCSRSYPPVCIPD-OH; disulfide 3-11; N-terminus and C-terminus assumed)

1. 3.00
2. 3.23
3. 3.60

###

Target protein (sequence): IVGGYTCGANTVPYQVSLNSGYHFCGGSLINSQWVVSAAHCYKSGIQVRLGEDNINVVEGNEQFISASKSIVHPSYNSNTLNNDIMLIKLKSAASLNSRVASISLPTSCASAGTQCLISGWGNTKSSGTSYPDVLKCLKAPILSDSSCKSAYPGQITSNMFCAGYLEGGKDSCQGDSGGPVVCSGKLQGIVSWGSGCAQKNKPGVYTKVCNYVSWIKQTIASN
Bridge positions count the residues as written; N and C are the ends. Peptide text beside a SMILES is read from it.
Reported Endpoint: Ki (nM)
One number for each entry, in nM.

Please state, for each entry, its recorded Ki.
1. CC[C@H](C)[C@H](NC(=O)CN)C(=O)N[C@H]1CSSC[C@@H](C(=O)N[C@H](C(=O)N2CCC[C@H]2C(=O)N[C@@H](CC(=O)O)C(=O)O)[C@@H](C)CC)NC(=O)[C@H]([C@@H](C)CC)NC(=O)[C@@H]2CCCN2C(=O)[C@@H]2CCCN2C(=O)[C@H](CC(C)C)NC(=O)[C@H](CO)NC(=O)[C@H](CCCNC(=N)N)NC(=O)[C@H](CO)NC1=O [M2-4G] (H-GICSRSLPPICIPD-OH; disulfide 3-11; N-terminus and C-terminus assumed)
2. CC[C@H](C)[C@@H]1NC(=O)[C@@H]2CCCN2C(=O)[C@@H]2CCCN2C(=O)[C@H](CC(C)C)NC(=O)[C@H](CO)NC(=O)[C@H](CCCNC(=N)N)NC(=O)[C@H](CO)NC(=O)[C@@H](NC(=O)[C@@H](NC(=O)CN)C(C)C)CSSC[C@@H](C(=O)N[C@@H](Cc2c[nH]c3ccccc23)C(=O)N2CCC[C@H]2C(=O)N[C@@H](CC(=O)O)C(=O)O)NC1=O [M1-3E-Y12W] (H-GVCSRSLPPICWPD-OH; disulfide 3-11; N-terminus and C-terminus assumed)

1. 260
2. 170
